# SUBJECT_OF_TEST: RSV fusion glycoprotein (RSV-F) (respiratory syncytial virus)
# ASSAY_PROTOCOL: SPR; F protein loaded on streptavidin sensors, mAb in solution
MEASURED_ATTRIBUTE: pKd
Value format note: pKd is -log10 of concentration (mol/L); just state the number.

So for MPK133 (antibody, V domains shown, VH and VL only) VH: QVQLVQSGGGLVKPGGSLRLSCAASEFSFSGYFMIWIRQAPGKGLEWISYISGSSTYTNYADSVKGRFTISRDNAQNTLYLEMNSLRAEDTGVYYCATEQVPSPGPFDLWGQGTLVTVSS VL: QSVLTQPPSVSGAPGQRVTISCTGSSSNIGAGYDVHWYQQFPGRSPTLLIYRNTNRPSGVPDRFSGSQSGSSASLAITGLQAEDEADYYCQSYDRTLSGWAFGGGTKVTVL , the logged pKd turned out to be 12.00

So for MPK129 (antibody, V domains shown, VH and VL only) VH: EVQLVESGGGLVKPGGSLRLSCEASGFSLSGYYMIWIRQAPGKGLEWISSISGSGNYIDYADSVKGRFTISRDNGHNTLYLQMNSLRVEDTAVYYCATEQTPSPGPFDHWGQGTLVTVSS VL: QTVVTQPPSVSGAPGQRVTISCTGTSSNIGTGYDVHWYQQFPGTSPKLLIYRNTNRPSGVPDRFSGSKSGSSASLAIAGLQAEDEADYYCQSYDRSVSGWVFGGGTKLTVL , the logged pKd turned out to be 10.08
